target: T1, human LTBP1-proTGFβ1 complex (human, UniProt Q14766 347-1721; P01137 30-390); experiment: SPR Biacore 8K, Fab over captured antigen
T1 construct: Large latent complex: one presenting molecule disulfide-linked to a proTGFβ1 dimer; also called Hu LTBP1-proTGFβ1; huLTBP1 proTGFβ1
T1 sequence (Q14766 347-1721 limits assumed, chain 1 of 2): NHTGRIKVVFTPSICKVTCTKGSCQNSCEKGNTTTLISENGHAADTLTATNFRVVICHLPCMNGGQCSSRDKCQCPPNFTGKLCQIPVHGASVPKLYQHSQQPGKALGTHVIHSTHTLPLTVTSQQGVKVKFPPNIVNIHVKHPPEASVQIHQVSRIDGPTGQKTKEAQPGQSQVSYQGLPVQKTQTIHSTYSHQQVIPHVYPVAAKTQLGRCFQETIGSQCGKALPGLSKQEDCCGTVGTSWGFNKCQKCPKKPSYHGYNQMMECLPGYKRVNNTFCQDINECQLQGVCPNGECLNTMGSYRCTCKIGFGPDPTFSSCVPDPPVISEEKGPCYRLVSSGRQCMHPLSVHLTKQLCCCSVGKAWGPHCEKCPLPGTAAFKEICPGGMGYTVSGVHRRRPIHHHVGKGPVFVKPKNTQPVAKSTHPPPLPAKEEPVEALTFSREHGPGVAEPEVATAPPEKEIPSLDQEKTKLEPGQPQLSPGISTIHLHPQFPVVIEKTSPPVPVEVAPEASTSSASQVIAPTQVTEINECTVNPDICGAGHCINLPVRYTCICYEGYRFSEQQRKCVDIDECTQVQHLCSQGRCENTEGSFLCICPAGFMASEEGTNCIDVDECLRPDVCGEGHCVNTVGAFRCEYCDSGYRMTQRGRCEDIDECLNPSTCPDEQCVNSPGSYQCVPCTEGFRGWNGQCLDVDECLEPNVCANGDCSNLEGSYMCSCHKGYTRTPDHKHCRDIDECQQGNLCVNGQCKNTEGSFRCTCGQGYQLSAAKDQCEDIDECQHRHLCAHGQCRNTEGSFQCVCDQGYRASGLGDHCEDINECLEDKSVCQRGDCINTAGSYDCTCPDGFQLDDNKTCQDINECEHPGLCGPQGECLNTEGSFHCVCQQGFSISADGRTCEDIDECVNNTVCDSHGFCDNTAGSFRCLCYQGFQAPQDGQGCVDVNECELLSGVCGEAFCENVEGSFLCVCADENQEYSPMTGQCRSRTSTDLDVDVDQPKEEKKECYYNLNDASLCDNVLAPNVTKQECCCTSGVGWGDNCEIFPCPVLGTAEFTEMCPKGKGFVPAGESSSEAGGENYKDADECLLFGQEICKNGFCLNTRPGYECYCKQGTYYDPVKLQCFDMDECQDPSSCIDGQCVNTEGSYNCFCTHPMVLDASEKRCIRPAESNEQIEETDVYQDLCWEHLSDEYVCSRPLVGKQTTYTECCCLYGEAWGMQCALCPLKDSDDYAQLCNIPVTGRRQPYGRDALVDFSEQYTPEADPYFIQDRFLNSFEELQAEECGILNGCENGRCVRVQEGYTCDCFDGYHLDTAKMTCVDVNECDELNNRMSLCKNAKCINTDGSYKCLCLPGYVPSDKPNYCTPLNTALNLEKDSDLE
T1 sequence (P01137 30-390 limits assumed, chain 2 of 2): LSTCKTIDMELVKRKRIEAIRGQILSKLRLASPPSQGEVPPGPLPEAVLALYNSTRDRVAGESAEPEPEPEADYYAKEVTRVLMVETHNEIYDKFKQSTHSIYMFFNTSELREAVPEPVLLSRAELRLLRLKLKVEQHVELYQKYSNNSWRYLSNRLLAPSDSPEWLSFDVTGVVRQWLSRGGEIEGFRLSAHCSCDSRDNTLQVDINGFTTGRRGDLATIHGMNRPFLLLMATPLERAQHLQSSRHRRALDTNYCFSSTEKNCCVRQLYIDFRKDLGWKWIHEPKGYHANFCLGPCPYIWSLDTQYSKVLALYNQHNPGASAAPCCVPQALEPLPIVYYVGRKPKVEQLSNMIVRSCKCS
OUTCOME MEASURE: kon (M⁻¹ s⁻¹)
Please respond with the number in M⁻¹ s⁻¹ and leave the unit unwritten.

Look up kon for this binder: SR-AB49-HuFab (Fab, V domains shown, Human Fab; also called SR-AB49 Fab) VH: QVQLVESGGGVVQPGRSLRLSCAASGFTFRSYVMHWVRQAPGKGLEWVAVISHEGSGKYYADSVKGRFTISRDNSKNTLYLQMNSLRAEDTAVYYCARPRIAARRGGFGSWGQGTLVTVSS VL: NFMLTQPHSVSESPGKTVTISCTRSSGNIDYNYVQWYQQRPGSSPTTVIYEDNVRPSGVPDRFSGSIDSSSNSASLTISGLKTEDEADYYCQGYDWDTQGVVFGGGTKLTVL
809000
